This collection of values is drawn from patent US20250353859A1.

Molecular target: human CCR6 (Homo sapiens, UniProt P51684)
Sequence (P51684 1-374): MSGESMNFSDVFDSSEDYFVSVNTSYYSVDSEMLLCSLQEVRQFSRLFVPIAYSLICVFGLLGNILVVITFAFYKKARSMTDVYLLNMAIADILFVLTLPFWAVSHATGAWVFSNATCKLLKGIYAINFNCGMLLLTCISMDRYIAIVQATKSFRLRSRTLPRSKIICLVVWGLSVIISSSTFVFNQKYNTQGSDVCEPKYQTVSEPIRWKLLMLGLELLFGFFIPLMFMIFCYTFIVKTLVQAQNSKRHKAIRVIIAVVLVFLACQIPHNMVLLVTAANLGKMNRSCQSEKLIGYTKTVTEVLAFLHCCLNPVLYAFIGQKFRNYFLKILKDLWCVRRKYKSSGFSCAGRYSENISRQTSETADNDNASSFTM
Experiment: Human CCR6-CRE reporter assay
Format: cell-based
Set-up: The second construct contained the open reading frame of human CCR6 in the pUNO1 backbone; host or cells: 293FT cells (transient transfection with TransIT-293)
Conditions: 293FT cells transfected with human CCR6 and CRE-luciferase; Forskolin + CCL20, 5 h; relative Log IC50; read-out: CCR6-CRE reporter (converted)
Method: 293FT cells were transfected with 2 constructs using TransIT-293 (Mirus). The first construct (pGL4.29, Promega) expressed the luciferase reporter gene luc2P in response to the binding of cAMP-induced CREB to the CREelement in its promoter. […] Luciferase activity was determined by addition of 24 μl of a 2.5× diluted BriteLite luciferase solution(Perkin Elmer), followed by luminescence measurement using a VICTOR Plate reader (Perkin Elmer). […]
Doc: threshold 200 nM (exclusive). Items with IC50 beneath it return 1; others return -1.

Before answering, review these 7 worked examples.
Compound	Discrete label
N#Cc1c[nH]c2ccc(-c3ccc(S(=O)(=O)[C@H]4CC[C@H](Nc5ccc(SC(F)(F)F)cc5)CC4)cc3)cc12	1
O=S(=O)(c1ccc(-c2ccc3nccn3c2)cc1)[C@H]1CC[C@H](Nc2ccc(OC(F)(F)F)cc2)CC1	1
CC(C)c1nnc2ccc(-c3ccc(S(=O)(=O)N4CCC(Nc5ccc(SC(F)(F)F)cn5)CC4)cc3)cn12	1
O=S(=O)(c1ccc(-c2ccc3nccn3c2)cc1)[C@H]1CC[C@H](Nc2ccc(OC(F)(F)F)cn2)CC1	1
CC(C)c1nnc2ccc(-c3ccc(S(=O)(=O)N4CCC(Nc5cc(OC(F)(F)F)ccn5)CC4)cc3)cn12	-1
CC(C)c1nnc2cnc(-c3ccc(S(=O)(=O)N4CCC(Nc5ccc(OC(F)(F)F)cn5)CC4)cc3)cn12	1
CC(C)c1nnc2cnc(-c3ccc(S(=O)(=O)N4CCC(Nc5ccc(SC(F)(F)F)cn5)CC4)cc3)cn12	1

Here is another compound to look at.
IN: Lab note: IC50 threshold 200 nM. Does this compound come in strictly under it? CC1CC(Nc2ccc(OC(F)(F)F)cc2)CCN1S(=O)(=O)c1ccc(-c2ccc(C#N)cc2)cc1 (stereo not drawn)
OUT: -1

====

Hi there, I'd appreciate the recorded pIC50 for every entry that follows.
target: human CCR6 (Homo sapiens, UniProt P51684); test: CHO-K1 CCR6 chemotaxis assay towards CCL20; assay type: cell-based; conditions: CHO-K1 cells overexpressing human CCR6; 100 ng/ml CCL20, 4 h; relative Log IC50
One number for each entry, as −log10 of the molar value.

In the examples that follow, each entry is paired with its recorded pIC50.
Compound	Reported result
N#Cc1c[nH]c2ccc(-c3ccc(S(=O)(=O)[C@H]4CC[C@H](Nc5ccc(SC(F)(F)F)cc5)CC4)cc3)cc12	8.20
N#Cc1c[nH]c2ccc(-c3ccc(S(=O)(=O)N4CCC(Nc5ccc(OC(F)F)cc5)CC4)cc3)cc12	6.90

Your task in this section: give pIC50 for each listed record.
1. NC(=O)c1cc(-c2ccc(S(=O)(=O)N3CCC(Nc4ccc(SC(F)(F)F)cn4)CC3)cc2)ccn1
2. CC(C)c1nnc2cnc(-c3ccc(S(=O)(=O)N4CCC(Nc5ccc(OC(F)(F)F)cn5)CC4)cc3)cn12
3. O=c1[nH]nc2ccc(-c3ccc(S(=O)(=O)N4CCC(Nc5ccc(OC(F)(F)F)cc5)CC4)cc3)cn12
4. CC(C)c1cnc2ccc(-c3ccc(S(=N)(=O)[C@H]4CC[C@H](Nc5ccc(SC(F)(F)F)cc5)CC4)cc3)cn12 (stereo partly drawn)

OUT:
7.80
8.10
7.40
6.10
